Collected pKi values appear next to each entry.
- measurement_target: D(3) dopamine receptor (Homo sapiens, UniProt P35462)
- Sequence (P35462 whole entry): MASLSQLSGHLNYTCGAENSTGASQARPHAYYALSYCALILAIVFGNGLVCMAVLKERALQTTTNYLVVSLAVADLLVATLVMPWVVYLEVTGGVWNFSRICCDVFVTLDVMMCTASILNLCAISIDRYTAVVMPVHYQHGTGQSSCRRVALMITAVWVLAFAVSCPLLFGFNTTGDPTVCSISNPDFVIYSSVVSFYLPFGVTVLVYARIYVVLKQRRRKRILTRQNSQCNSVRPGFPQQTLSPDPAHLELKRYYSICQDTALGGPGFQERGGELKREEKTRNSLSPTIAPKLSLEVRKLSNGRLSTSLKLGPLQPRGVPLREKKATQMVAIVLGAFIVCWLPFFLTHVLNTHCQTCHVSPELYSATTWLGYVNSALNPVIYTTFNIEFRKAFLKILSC
- assay_procedure: Displacement of [3H](R)-(+)-7-OH-DPAT from human D3 receptor expressed in HEK293 cell membranes measured after 90 mins by scintillation counting method
pKi: −log10 of the molar value.
reported_endpoint: pKi

>>> df
                            molecule_smiles  cmp  result_value
0      Cc1cccc(NC(=O)CN2CCC(c3ccccn3)CC2)c1    =          6.78
1  Cc1cccc(NC(=O)CN2CCN(c3ccc(Cl)cn3)CC2)c1    <          5.00
2      Cc1cccc(NC(=O)CN2CCN(c3ncccn3)CC2)c1    =          5.22
3     Cc1cccc(NC(=O)CCN2CCN(c3ccccn3)CC2)c1    =          6.11
4     Cc1cccc(NC(=O)CCN2CCC(c3ccccn3)CC2)c1    =          6.29
5      Cc1cccc(NC(=O)CN2CCC(c3ccccc3)CC2)c1    =          6.11

Just for reference, ChEMBL document CHEMBL4390675 is where these values come from.
